Where do these numbers come from? They come from patent US20240368109A1.

target: human α7 nAChR (Homo sapiens (Human)); test: Automated patch-clamp electrophysiology functional assay (Assay A); assay type: cell-based; conditions: potency class; IonFlux HT whole-cell population patch, HEK cells expressing human α7/RIC-3, 40 μM acetylcholine
Sequence (P36544 23-502): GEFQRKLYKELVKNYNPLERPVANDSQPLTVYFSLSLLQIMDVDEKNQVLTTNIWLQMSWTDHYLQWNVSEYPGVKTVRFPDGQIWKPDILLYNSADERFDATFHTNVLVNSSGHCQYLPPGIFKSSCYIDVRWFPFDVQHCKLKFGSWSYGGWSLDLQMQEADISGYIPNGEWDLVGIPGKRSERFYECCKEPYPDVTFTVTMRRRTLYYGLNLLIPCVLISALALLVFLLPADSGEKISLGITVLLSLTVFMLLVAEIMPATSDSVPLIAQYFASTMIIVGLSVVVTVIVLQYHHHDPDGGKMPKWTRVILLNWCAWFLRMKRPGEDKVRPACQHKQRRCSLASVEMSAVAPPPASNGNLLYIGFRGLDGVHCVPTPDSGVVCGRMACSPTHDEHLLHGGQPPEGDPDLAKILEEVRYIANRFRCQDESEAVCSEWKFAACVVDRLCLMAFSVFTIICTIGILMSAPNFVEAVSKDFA
pEC50: −log10 of the molar value.
readout-name: pEC50

[[record]]
compound = "O=C(NCc1nc(Br)no1)C1C2Oc3ccc(F)cc3C21 (stereo not shown)"
readout_name = "pEC50"
assay_result = "5.30 to 6.30"

[[record]]
compound = "O=C(NCc1nc(-c2ccccc2)no1)C1C2Oc3ccc(F)cc3C21 (stereo not shown) [Example C53]"
readout_name = "pEC50"
assay_result = "5.30 to 6.30"

[[record]]
compound = "CCOc1ccc(C2(NC(=O)C3C4Oc5ccc(F)cc5C43)CCC2)cn1 (stereo not shown)"
readout_name = "pEC50"
assay_result = "4.30 to 5.30"

[[record]]
compound = "CCOc1ccc([C@H](COC)NC(=O)C2C3c4ccccc4N(C(C)=O)C23)cc1 (stereo partly shown)"
readout_name = "pEC50"
assay_result = "5.30 to 6.30"

